MEASURED_TARGET: PKC-alpha (Homo sapiens, UniProt P17252)
Construct: purchased Calbiochem
ASSAY: In vitro kinase assay: peptide phosphorylation by PKC-alpha
Type: biochemical
CONDITIONS: peptide concentration 1 uM
RECORDED_METRIC: phosphorylation by PKC alpha
Answer field: number only, no words.

phosphorylation by PKC alpha measured on 138 (EYLERRASRRRAV) [compound 138] = 17

phosphorylation by PKC alpha measured on 165 (TEEKSKKRKKKHRKNSRKHK) [compound 165] = 15

phosphorylation by PKC alpha measured on 121 (LRRRSLRRSNSISKSPGP) [compound 121] = 33

phosphorylation by PKC alpha measured on 131 (WKGKRRSKARKKRK) [compound 131] = 49

phosphorylation by PKC alpha measured on 132 (GFLNEPLSSKSQRRKSLKLK) [compound 132] = 24

phosphorylation by PKC alpha measured on 161 (KYKAFIRIPIPTRRHTFRRQ) [compound 161] = 22

phosphorylation by PKC alpha measured on 152 (DLIEGRKGAQIVKRASLKRG) [compound 152] = 13

phosphorylation by PKC alpha measured on 151 (PQNSLKASNRKKKRTSFKRK) [compound 151] = 17

phosphorylation by PKC alpha measured on 144 (LSSMFGTLPRKSRKGSVRKQ) [compound 144] = 31

phosphorylation by PKC alpha measured on 148 (RELEQLKAEYLERRASRRRA) [compound 148] = 19

phosphorylation by PKC alpha measured on 137 (PSKSPSKKKKKFRTPSFLKK) [compound 137] = 34

phosphorylation by PKC alpha measured on 125 (PLKEKKRERKTSSKSSVRKR) [compound 125] = 34

phosphorylation by PKC alpha measured on 134 (RSRSRSRSKSKDKRKSRKRS) [compound 134] = 54

phosphorylation by PKC alpha measured on 158 (VQMTWSYPDEKNKRASVRRR) [compound 158] = 16

phosphorylation by PKC alpha measured on 115 (NRKKKRTSFKRKA) [compound 115] = 55

phosphorylation by PKC alpha measured on 128 (QQVDRERPHVRRRRGTFKRS) [compound 128] = 25

phosphorylation by PKC alpha measured on 150 (VDPFYEMLAARKKRISVKKK) [compound 150] = 12

phosphorylation by PKC alpha measured on 146 (QAQRQIKRGAPPRRSSIRNA) [compound 146] = 20

phosphorylation by PKC alpha measured on 149 (RVVQSVKHTKRKSSTVMK) [compound 149] = 33

phosphorylation by PKC alpha measured on 136 (RARRDSLKKIEIW) [compound 136] = 26

----------
MEASURED_TARGET: PKC-theta (Homo sapiens)
Construct: His-tag; made in house; host or cells: baculovirus-infected Sf9 cells
Sequence (Q04759 whole entry): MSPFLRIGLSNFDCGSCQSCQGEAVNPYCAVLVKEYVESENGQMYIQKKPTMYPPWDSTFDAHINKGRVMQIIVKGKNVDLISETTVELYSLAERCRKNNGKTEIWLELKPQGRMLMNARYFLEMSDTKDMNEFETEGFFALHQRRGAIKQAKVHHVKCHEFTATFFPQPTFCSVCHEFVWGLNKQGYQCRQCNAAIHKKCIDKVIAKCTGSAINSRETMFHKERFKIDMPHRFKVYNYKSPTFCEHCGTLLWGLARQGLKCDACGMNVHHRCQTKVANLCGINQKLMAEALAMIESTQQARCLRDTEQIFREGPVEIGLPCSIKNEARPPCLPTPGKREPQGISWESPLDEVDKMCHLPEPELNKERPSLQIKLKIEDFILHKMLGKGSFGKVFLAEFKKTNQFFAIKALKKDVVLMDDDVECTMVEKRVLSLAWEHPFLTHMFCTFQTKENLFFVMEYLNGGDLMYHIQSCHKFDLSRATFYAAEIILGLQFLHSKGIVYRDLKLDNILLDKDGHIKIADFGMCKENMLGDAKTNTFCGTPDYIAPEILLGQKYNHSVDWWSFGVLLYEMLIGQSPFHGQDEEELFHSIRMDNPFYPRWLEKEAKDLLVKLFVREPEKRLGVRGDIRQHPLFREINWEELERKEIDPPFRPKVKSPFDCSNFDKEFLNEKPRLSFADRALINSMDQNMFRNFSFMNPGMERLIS
ASSAY: In vitro kinase assay: peptide phosphorylation by PKC-theta
Format: biochemical
CONDITIONS: peptide concentration 10 uM
The threshold is 30. Values of phosphorylation by PKC theta beneath it are tagged Yes; values meeting or exceeding it are tagged No.

Inquiry: Identify whether the substance 132 (GFLNEPLSSKSQRRKSLKLK) [compound 132] records phosphorylation by PKC theta below 30.
Reply text: No

Inquiry: Identify whether the substance 127 (SQVQKQRSAGSFKRNSIKKI) [compound 127] records phosphorylation by PKC theta below 30.
Reply text: No

Inquiry: Identify whether the substance 155 (RWDKRRWRKIPKRPGSVHRT) [compound 155] records phosphorylation by PKC theta below 30.
Reply text: Yes

Inquiry: Identify whether the substance 136 (RARRDSLKKIEIW) [compound 136] records phosphorylation by PKC theta below 30.
Reply text: Yes

Inquiry: Identify whether the substance 166 (MAQIERGEARIQRRISIKKA) [compound 166] records phosphorylation by PKC theta below 30.
Reply text: Yes

Inquiry: Identify whether the substance 161 (KYKAFIRIPIPTRRHTFRRQ) [compound 161] records phosphorylation by PKC theta below 30.
Reply text: Yes

Inquiry: Identify whether the substance 117 (NRKKKRTSFKRKA) [compound 117] records phosphorylation by PKC theta below 30.
Reply text: No

Inquiry: Identify whether the substance 131 (WKGKRRSKARKKRK) [compound 131] records phosphorylation by PKC theta below 30.
Reply text: No

Inquiry: Identify whether the substance 115 (NRKKKRTSFKRKA) [compound 115] records phosphorylation by PKC theta below 30.
Reply text: No

Inquiry: Identify whether the substance 167 (GLPAPGEDKSIYRRGSRRWR) [compound 167] records phosphorylation by PKC theta below 30.
Reply text: Yes

Inquiry: Identify whether the substance 141 (VTDSQKRREILSRRPSYRKI) [compound 141] records phosphorylation by PKC theta below 30.
Reply text: Yes

Inquiry: Identify whether the substance 158 (VQMTWSYPDEKNKRASVRRR) [compound 158] records phosphorylation by PKC theta below 30.
Reply text: Yes

Inquiry: Identify whether the substance 159 (LYARLARAYRRSQRASFKRA) [compound 159] records phosphorylation by PKC theta below 30.
Reply text: Yes
